settings: in ethanol, 303.15 K
observedProperty: solubility (mole fraction)
Answers are plain numbers.

Incoming: Write down solubility (mole fraction) measured for item Cc1onc(-c2c(Cl)cccc2Cl)c1C(=O)N[C@@H]1C(=O)N2[C@@H]1SC(C)(C)[C@@H]2C(=O)[O-].O.[Na+]
Outgoing: 0.00211
